// compounds with IC50 on Muscarinic acetylcholine receptor M1 (Homo sapiens, UniProt P11229), multi-source literature
Sequence (P11229 whole entry): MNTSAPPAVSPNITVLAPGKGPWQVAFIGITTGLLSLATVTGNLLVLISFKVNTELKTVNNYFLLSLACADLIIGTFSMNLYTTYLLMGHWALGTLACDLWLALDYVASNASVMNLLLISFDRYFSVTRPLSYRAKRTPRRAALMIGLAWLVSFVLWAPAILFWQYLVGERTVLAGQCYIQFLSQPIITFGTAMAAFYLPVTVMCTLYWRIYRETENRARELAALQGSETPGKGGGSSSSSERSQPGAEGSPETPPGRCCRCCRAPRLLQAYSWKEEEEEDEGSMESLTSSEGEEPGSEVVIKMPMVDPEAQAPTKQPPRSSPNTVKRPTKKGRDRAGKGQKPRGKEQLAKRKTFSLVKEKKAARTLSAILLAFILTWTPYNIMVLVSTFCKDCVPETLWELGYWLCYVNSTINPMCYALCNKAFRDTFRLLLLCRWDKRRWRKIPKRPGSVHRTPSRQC
Result Type: IC50 (µM)

Worked set:
Compound: COc1ccc(-c2ccc(CCCNc3ccc(CN4CCCC4)cc3)nn2)cc1
Measurement Target: Muscarinic acetylcholine receptor M1 (Homo sapiens, UniProt P11229)
Measure Unit: µM
IC50: 1.86

Compound: Fc1ccc(-c2ccc(CCCNc3ccc(CN4CCCCC4)cc3)nn2)cc1
Measurement Target: Muscarinic acetylcholine receptor M1 (Homo sapiens, UniProt P11229)
Measure Unit: µM
IC50: 3.74

Compound: O=C(Nc1ccccc1)N1CCCC(c2ccccc2)(C2CCN(Cc3ccc(Br)cc3)CC2)C1 (single isomer, unassigned; (+))
Measurement Target: Muscarinic acetylcholine receptor M1 (Homo sapiens, UniProt P11229)
Measure Unit: µM
IC50: 8.9

a. CN(CCCc1ccc(-c2ccc(Cl)cc2)cc1)c1ccc(CN2CCCCC2)cc1
b. NC(N)=NCCCCCCCCC(=O)C(N)CCCN=C(N)N (stereo not given)
c. O=C(Nc1ccccc1-c1cn2c(CN3CCNCC3)csc2n1)c1cnc2ccccc2n1
d. O=C(C#Cc1ccc(-c2ccc(Cl)cc2)cc1)Nc1ccc(CN2CCCCC2)cc1
Request: Hey, quick one: sort these by IC50, largest value first please. Use the labels to give the ranking in the order requested.
Result: c, a, d, b

A. Clc1ccc(-c2ccc(CCCNc3ccc(CN4CCCCC4)cc3)cc2)cc1
B. Cc1ncc(C(=O)NCCN2CCCC2(C)C)cc1NC(=O)c1cnn2cc(-c3cnn(C)c3)ccc12
Request: Could you check which of A and B has a smaller value for IC50? State your choice using its label.
Result: A
(A: 0.325 µM, B: 5 µM)

* * *

The compounds below each have a reported IC50 tested on Muscarinic acetylcholine receptor M1 (Homo sapiens); the values come from various publications.

Compound: CC(C)=CCn1c(N2CCC[C@H](N)C2)c(C#N)c2c1c(=O)n(Cc1nccc3ccccc13)c(=O)n2C
Measurement Target: Muscarinic acetylcholine receptor M1 (Homo sapiens)
Test Value: > 10 µM
//
Compound: CC(=O)Nc1cc(Cl)ccc1/C=C/C(=O)N1CCN(Cc2ccc(F)cc2)C[C@H]1C
Measurement Target: Muscarinic acetylcholine receptor M1 (Homo sapiens)
Test Value: > 1 µM
//
Compound: COc1ccc(-c2ccc(CCCNc3ccc(CN4CCCC(O)C4)cc3)nn2)cc1 (centres undefined)
Measurement Target: Muscarinic acetylcholine receptor M1 (Homo sapiens)
Test Value: > 10 µM
//
Compound: COc1ccc(-c2ccc(CCCNc3ccc(CN4CCCCC4)cc3)nn2)cc1
Measurement Target: Muscarinic acetylcholine receptor M1 (Homo sapiens)
Test Value: 0.962 µM
//
Compound: OCC1CCN(Cc2ccc(OCCCc3ccc(-c4ccc(Cl)cc4)nn3)cc2)CC1
Measurement Target: Muscarinic acetylcholine receptor M1 (Homo sapiens)
Test Value: 1.65 µM

Request: API: value(readout= IC50, system= Muscarinic acetylcholine receptor M1 (Homo sapiens), query= `COc1cccc(C(=O)Cn2c(=O)c3c(c(C#N)c(N4CCC[C@H](N)C4)n3CC=C(C)C)n(C)c2=O)c1` )
Result: > 10 µM

Request: Another: `OC1CCN(Cc2ccc(NCCCc3ccc(Oc4ccccc4)nn3)cc2)CC1`
Result: > 10 µM

Request: Next compound up: `CC#CCn1c(N2CCCNCC2)c(C#N)c2c1c(=O)n(Cc1nc(C)c3ccccc3n1)c(=O)n2C`
Result: > 10 µM

Request: Try this compound too: `CC(C)=CCn1c(N2CCC[C@H](N)C2)c(C#N)c2ncn(C)c(=O)c21`
Result: > 10 µM

* * *

pIC50: −log10 of the molar value.
Across several publications, the following pIC50 results were reported for Muscarinic acetylcholine receptor M1 (Homo sapiens, UniProt P11229).

Mol Smiles: CC(=O)NC1CCN(Cc2ccc(OCCCc3ccc(Cc4ccccc4)nn3)cc2)CC1
pIC50: < 5.00
--
Mol Smiles: COc1cc(NC(=O)c2ccc(-c3ccc(Cl)cc3)o2)cc(OC)c1
pIC50: < 5.00
--
Mol Smiles: COc1cccc(C(=O)Cn2cnc3c(C#N)c(N4CCC[C@@H](N)C4)n(CC=C(C)C)c3c2=O)c1
pIC50: < 5.00
--
Mol Smiles: CC#CCn1c(N2CCC[C@@H](N)C2)c(C#N)c2c1c(=O)n(Cc1nc(C)c3ccccc3n1)c(=O)n2C
pIC50: < 5.00
--
Mol Smiles: COc1cccc(C(=O)Cn2cnc3c(C#N)c(N4CCNCC4)n(CC=C(C)C)c3c2=O)c1
pIC50: < 5.00

Request: Query: pIC50; subject: `CC#CCn1c(N2CCC[C@H](N)C2)c(C#N)c2ncn(Cc3ccnc4ccccc34)c(=O)c21`
Result: < 5.00

Request: Same again, this time with `Clc1ccc(-c2ccc(CCCNc3ccc(CN4CCCCC4)cc3)nn2)cc1`
Result: 6.51

Request: Another: `COc1cccc(C(=O)Cn2c(=O)c3c(c(C#N)c(N4CCC[C@H](N)C4)n3Cc3ccccc3)n(C)c2=O)c1`
Result: < 5.00

Request: Continue with `Cn1cnc2c(C#N)c(N3CCC[C@H](N)C3)n(Cc3ccccc3)c2c1=O`
Result: < 5.00

Request: Next: `COc1ccc(-c2ccc(CCCNc3ccc(CN4CCC(NC(C)=O)CC4)cc3)nn2)cc1`
Result: < 5.00

Request: Can you check `CC#CCn1c(N2CCC[C@H](N)C2)c(C#N)c2c1c(=O)n(Cc1nccc3ccccc13)c(=O)n2C` next?
Result: < 5.00
